Source listed as patent US20260184777A1.

Molecular target: T1, human S100A8/A9 heterodimeric antigen, His-tagged (hS100A8/A9-His) (human, UniProt P05109 1-93; P06702 1-114)
T1 sequence 1: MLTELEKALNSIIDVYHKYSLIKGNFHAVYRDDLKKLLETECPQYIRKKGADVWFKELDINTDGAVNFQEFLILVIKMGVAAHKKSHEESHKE
T1 sequence 2: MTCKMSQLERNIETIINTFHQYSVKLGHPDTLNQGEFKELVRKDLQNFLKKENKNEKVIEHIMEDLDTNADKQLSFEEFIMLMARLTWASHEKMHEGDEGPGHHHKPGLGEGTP
Test: cell-based or functional assay
// values below are reported Relative IC50 (IC50 relative to CM-1), IL-6 release from hS100A8/A9-activated human PBMCs
Measured property: Relative IC50 (IC50 relative to CM-1), IL-6 release from hS100A8/A9-activated human PBMCs

| Binder | Measured result |
| --- | --- |
| CM-63 (antibody, human IgG4 S228P, lambda, V domains shown) VH: EVQLVESGGGLVQPGGSLRLSCAASGFTFSSYAMSWVRQAPGKGLEWVSAISGSGGSTWYAASVKGRFTISRDNSKNTLYLQMNSLRAEDTAVYYCARKYRPSRVFDAWGQGTLVTVSS VL: SYELTQPPSVSVAPGQTARITCSGDALGDKYASWYQQKPGQAPVLVIYEDAKRPSGIPERFSGSNSGNTATLTISGTQAEDEADYYCQSNDVDAVWVFGGGTKLTVLG | 1.33 relative to CM-1 |
| CM-100 (antibody, human IgG4 S228P, lambda, V domains shown) VH: EVQLVESGGGLVQPGGSLRLSCAASGFTFSDYAMSWVRQAPGKGLEWVSAISGSGGSHYYAASVKGRFTISRDNSKNTLYLQMNSLRAEDTAVYYCARKYRPSRVFDAWGQGTLVTVSS VL: SYELTQPPSVSVAPGQTARITCSGDALHDKYASWYQQKPGQAPVLVIYEDAKRPSGIPERFSGSNSGNTATLTISGTQAEDEADYYCQSNDADAVWVFGGGTKLTVLG | 1.12 relative to CM-1 |
| CM-61 (antibody, human IgG4 S228P, lambda, V domains shown) VH: EVQLVESGGGLVQPGGSLRLSCAASGFTYSSYAMSWVRQAPGKGLEWVSAISGSGGSTYYAASVKGRFTISRDNSKNTLYLQMNSLRAEDTAVYYCARKYRPSRVFDAWGQGTLVTVSS VL: SYELTQPPSVSVAPGQTARITCSGDALGDKYASWYQQKPGQAPVLVIYQDAKRPSGIPERFSGSNSGNTATLTISGTQAEDEADYYCQSNDADAVWVFGGGTKLTVLG | 0.923 relative to CM-1 |
| CM-62 (antibody, human IgG4 S228P, lambda, V domains shown) VH: EVQLVESGGGLVQPGGSLRLSCAASGFTFSSYVMSWVRQAPGKGLEWVSAISGSGGSTYYAASVKGRFTISRDNSKNTLYLQMNSLRAEDTAVYYCARKYRPSRVFDAWGQGTLVTVSS VL: SYELTQPPSVSVAPGQTARITCSGDALGDKYASWYQQKPGQAPVLVIYEDARRPSGIPERFSGSNSGNTATLTISGTQAEDEADYYCQSNDADAVWVFGGGTKLTVLG | 1.58 relative to CM-1 |
| CM-109 (antibody, human IgG4 S228P, lambda, V domains shown) VH: EVQLVESGGGLVQPGGSLRLSCAASGFTFSDYAMSWVRQAPGKGLEWVSAISGSGGSHYYAASVKGRFTISRDNSKNTLYLQMNSLRAEDTAVYYCARKYRPSRVFDAWGQGTLVTVSS VL: SYELTQPPSVSVAPGQTARITCSGDALHDKYASWYQQKPGQAPVLVIYEHHKRPSGIPERFSGSNSGNTATLTISGTQAEDEADYYCQSNDADAVWVFGGGTKLTVLG | 0.475 relative to CM-1 |
| CM-114 (antibody, human IgG4 S228P, lambda, V domains shown) VH: EVQLVESGGGLVQPGGSLRLSCAASGFTFSSYAMSWVRQAPGKGLEWVSAISGSGGSHYYAASVKGRFTISRDNSKNTLYLQMNSLRAEDTAVYYCARKYRPSRVFDAWGQGTLVTVSS VL: SYELTQPPSVSVAPGQTARITCSGDALGDKYASWYQQKPGQAPVLVIYEHHKRPSGIPERFSGSNSGNTATLTISGTQAEDEADYYCQSNDADAVWVFGGGTKLTVLG | 0.899 relative to CM-1 |
| CM-102 (antibody, human IgG4 S228P, lambda, V domains shown) VH: EVQLVESGGGLVQPGGSLRLSCAASGFTFSDYAMSWVRQAPGKGLEWVSAISGSGGSHYYAASVKGRFTISRDNSKNTLYLQMNSLRAEDTAVYYCARKYRPSRVFDAWGQGTLVTVSS VL: SYELTQPPSVSVAPGQTARITCSGDALGDKYASWYQQKPGQAPVLVIYEDAKRPSGIPERFSGSNSGNTATLTISGTQAEDEADYYCQSNDADAWWVFGGGTKLTVLG | 0.464 relative to CM-1 |
| CM-89 (antibody, human IgG4 S228P, lambda, V domains shown) VH: EVQLVESGGGLVQPGGSLRLSCAASGFTFSDYAMSWVRQAPGKGLEWVSAISGSGGSTYYAASVKGRFTISRDNSKNTLYLQMNSLRAEDTAVYYCARKYRPSRVFDAWGQGTLVTVSS VL: SYELTQPPSVSVAPGQTARITCSGDALGDKYASWYQQKPGQAPVLVIYEDAKRPSGIPERFSGSNSGNTATLTISGTQAEDEADYYCQSNDADAYWVFGGGTKLTVLG | 0.572 relative to CM-1 |
| CM-101 (antibody, human IgG4 S228P, lambda, V domains shown) VH: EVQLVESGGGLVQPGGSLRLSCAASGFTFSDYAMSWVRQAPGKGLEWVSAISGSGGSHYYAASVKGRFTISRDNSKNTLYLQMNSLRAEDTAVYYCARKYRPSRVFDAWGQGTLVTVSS VL: SYELTQPPSVSVAPGQTARITCSGDALGDKYAAWYQQKPGQAPVLVIYEDAKRPSGIPERFSGSNSGNTATLTISGTQAEDEADYYCQSNDADAVWVFGGGTKLTVLG | 0.683 relative to CM-1 |
| CM-112 (antibody, human IgG4 S228P, lambda, V domains shown) VH: EVQLVESGGGLVQPGGSLRLSCAASGFTFSSYAMSWVRQAPGKGLEWVSAISGSGGSHYYAASVKGRFTISRDNSKNTLYLQMNSLRAEDTAVYYCARKYRPSRVFDAWGQGTLVTVSS VL: SYELTQPPSVSVAPGQTARITCSGDALHDKYASWYQQKPGQAPVLVIYEDAKRPSGIPERFSGSNSGNTATLTISGTQAEDEADYYCQSNDADAVWVFGGGTKLTVLG | 0.738 relative to CM-1 |
